Biological target: Luciferin 4-monooxygenase (Photinus pyralis) (UniProt P08659)
Sequence (P08659 whole entry, looked up): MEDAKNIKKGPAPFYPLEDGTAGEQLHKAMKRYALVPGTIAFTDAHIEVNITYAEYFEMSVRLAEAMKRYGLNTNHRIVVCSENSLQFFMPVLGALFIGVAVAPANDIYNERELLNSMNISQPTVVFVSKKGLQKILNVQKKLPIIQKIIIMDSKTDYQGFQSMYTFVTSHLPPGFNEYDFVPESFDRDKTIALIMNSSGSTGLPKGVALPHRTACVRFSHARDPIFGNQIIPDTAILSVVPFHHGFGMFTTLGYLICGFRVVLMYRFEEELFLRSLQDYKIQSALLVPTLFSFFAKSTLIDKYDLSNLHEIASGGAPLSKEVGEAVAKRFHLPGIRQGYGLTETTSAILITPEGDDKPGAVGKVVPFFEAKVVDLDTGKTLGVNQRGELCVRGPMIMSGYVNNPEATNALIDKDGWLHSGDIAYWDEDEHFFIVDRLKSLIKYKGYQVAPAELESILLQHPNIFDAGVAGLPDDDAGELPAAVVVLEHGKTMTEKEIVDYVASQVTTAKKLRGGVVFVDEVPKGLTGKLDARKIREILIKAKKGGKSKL
Test: firefly luciferase enzyme inhibitors, primary screen, biochemical, luminescence, purified enzyme, 2006 set (AID 1141);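 note: cell-free assay with purified firefly luciferase at 100 ng per well in PBS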
Details: SteadyGlo luminescence, 30 min, higher = more signal, called active from +8 up or from −8 down
Assign class by z-score: not lower than -0.2 means TRUE; lower than -0.2 means FALSE.

Data request: Determine whether measured z-score meets or exceeds -0.2 for `CC(C)=NO[C@H](C)c1cn([C@H](CO)Cc2ccccc2)nn1`
Data returned: FALSE

Data request: Determine whether measured z-score meets or exceeds -0.2 for `CCN1C(=O)[C@H]2[C@H]3[C@H](O)[C@H](O)CC(=NNC(=O)OCc4ccc(OC)cc4)[C@@H]3CC[C@H]2C1=O`
Data returned: FALSE

Data request: Determine whether measured z-score meets or exceeds -0.2 for CCOC(=O)[C@H](Cc1ccccc1)NC(=O)CCC1CC(OC(=O)NCCc2ccc(F)cc2)CC2(CCCC(COC(=O)NCCOC)O2)O1 (some centres not stated)
Data returned: FALSE

Data request: Determine whether measured z-score meets or exceeds -0.2 for `CC(C)CON=C1[C@H]2CCn3c(=O)n(Cc4cc5c(cc4Cl)OCO5)c(=O)n3[C@H]2[C@H](O)[C@@H]2O[C@H]12`
Data returned: TRUE

Data request: Determine whether measured z-score meets or exceeds -0.2 for COCCNC(=O)OCC1CCCC2(CC(OC(=O)NCc3ccc4c(c3)OCO4)CC(CCC(=O)N[C@@H](C)C(=O)OC)O2)O1 (some centres not stated)
Data returned: TRUE

Data request: Determine whether measured z-score meets or exceeds -0.2 for `CC(CCN1CCCCc2nc(C)c(C)cc21)=NOC[C@@H](C)[C@H](OCc1ccccc1)C(C)C`
Data returned: FALSE

Data request: Determine whether measured z-score meets or exceeds -0.2 for `C[C@@H]1C=CCC(=O)OC[C@H]2O[C@@H](C=C[C@@H]2O)[C@H](C)C=CCC(=O)OC1`
Data returned: FALSE

* * *

Experiment: Plasmodium falciparum growth inhibition, primary screen, strain 3D7, DAPI fluorescence, 100 nL (AID 1184);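 note: parasites grown inside human red blood cells in medium with human serum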
Conditions: P. falciparum 3D7 growth, 3 d, higher = more signal
So I've got a bunch of molecules here, and I need their z-score values.

Data request: # z-score lookup, item `Cc1cc2c(c(=O)o1)[C@@H](O)[C@H]1O[C@H]1C2=O`
Data returned: -0.807

Data request: # z-score lookup, item `CC(C)CON=C1C[C@@H](O)[C@@H](O)[C@@H]2[C@@H]3C(=O)N(Cc4ccc5c(c4)OCO5)C(=O)[C@@H]3CC[C@H]12`
Data returned: -0.613

Data request: # z-score lookup, item `C[C@@H](c1ccccc1)N1C(=O)[C@H]2[C@H]3[C@H](O)[C@H](O)CC(=NO[C@@H]4O[C@H](CO)[C@@H](O)[C@H](O)[C@H]4O)[C@@H]3CC[C@H]2C1=O`
Data returned: -2.33

Data request: # z-score lookup, item `CC(=O)OC[C@H]1O[C@H](CCON=C2[C@H]3CCn4c(=O)n(-c5ccccc5)c(=O)n4[C@H]3[C@H](O)[C@@H]3O[C@H]23)C=C[C@@H]1OC(C)=O`
Data returned: -0.374

* * *

Test system: XIP peptide (Xip251-270) binding
Experiment: small-molecule binders of XIP peptide, primary screen, biochemical, small-molecule microarray, fluorescence 635/667 nm, 0.1 µg/mL protein (AID 1182)
Conditions: fluorescent protein binding, 635 nm, higher = more signal, called active from +8 up or from −8 down
So I've got a bunch of compounds here, and I need their composite z-score values.
// return a plain number; no unit text

Data request: # composite z-score lookup, item `COc1ccc(O[C@H]2C=C[C@@H](c3ccccc3)O[C@@H]2CON=C(C)CCC(=O)OC[C@H]2O[C@H](c3ccccc3)C=C[C@@H]2Oc2ccc(OC)cc2)cc1`
Data returned: 0.392

Data request: # composite z-score lookup, item `CO[C@@H]1COC(=O)[C@@H]2CCCN2C(=O)[C@@H](C)COC(=O)CC=C[C@H]1C`
Data returned: 0.523

Data request: # composite z-score lookup, item `COc1ccc(C#C[C@@H]2C=C[C@H](OC(C)=O)[C@@H](COC(C)=O)O2)cc1`
Data returned: 3.11

Data request: # composite z-score lookup, item `CON=Cc1ccc(C(=O)N2[C@H](c3ccc(C)cc3)[C@@H](C)CC[C@H]2C(=O)OC)cc1`
Data returned: -0.288

Data request: # composite z-score lookup, item `O=c1n(Cc2cc3c(cc2Cl)OCO3)c(=O)n2n1CC[C@@H]1C(=NOC[C@@H](O)COCc3ccco3)[C@H]3O[C@H]3[C@@H](O)[C@@H]12`
Data returned: -0.45

* * *

So I've got a bunch of compounds here, and I need their z-score values.
Test: HepG2 cell viability effects, profiling panel, calcein-AM fluorescence, 48 h, basal (AID 1164)
Settings: higher = more signal
// return a plain number; no unit text

Data request: # z-score lookup, item CC(C)C[C@H](NC(=O)CCC1CC(OC(=O)NCc2cccc3ccccc23)CC2(CCCC(COC(=O)NCc3ccccc3)O2)O1)C(=O)NCC(c1ccccc1)c1ccccc1 (some centres undefined)
Data returned: -0.429

Data request: # z-score lookup, item `C=COC[C@@H]1CN2[C@@H](CC[C@@H](C)[C@@H]2c2ccc(Br)cc2)C(=O)O1`
Data returned: -0.388

Data request: # z-score lookup, item COc1ccc(O[C@H]2C=C[C@@H](c3ccccc3)O[C@@H]2COC(=O)CCC(C)=NOC(C)CN2CCCc3nc(C)c(C)cc32)cc1 (some centres undefined)
Data returned: 0.919

Data request: # z-score lookup, item `C[C@H](ON=C1[C@H]2CCn3c(=O)n(-c4ccccc4)c(=O)n3[C@H]2[C@H](O)[C@@H]2O[C@H]12)c1cn([C@H](CO)Cc2ccccc2)nn1`
Data returned: 0.115

Data request: # z-score lookup, item `CO[C@H]1COC(=O)CC=C[C@H](C)COC(=O)[C@@H](C)NC(=O)CC=C[C@@H]1C`
Data returned: -1.46

Data request: # z-score lookup, item `C=CC[C@@H]1C=C[C@H](ON=C(C)CCC(=O)OC[C@H]2O[C@H](C#Cc3ccccc3)C=C[C@@H]2Oc2ccc(C)cc2)[C@@H](CO)O1`
Data returned: -0.0329

Data request: # z-score lookup, item CCOC(=O)[C@H](Cc1ccccc1)NC(=O)OC1CC(CCC2CC(CC)=NO2)OC2(CCCC(COC(=O)NCCC(C)C)O2)C1 (some centres undefined)
Data returned: -1.1

Data request: # z-score lookup, item `Cc1ccc(S(=O)(=O)OC[C@H]2CN3[C@H](c4ccc(Br)cc4)[C@@H](C)CC[C@H]3C(=O)O2)cc1`
Data returned: 0.62

Data request: # z-score lookup, item `C#CCCCON=C1[C@H]2CCn3c(=O)n(C)c(=O)n3[C@H]2[C@H](O)[C@@H]2O[C@H]12`
Data returned: 0.716

Data request: # z-score lookup, item `CC[C@@H](c1ccccc1)n1c(=O)n2n(c1=O)[C@H]1[C@H](O)[C@@H]3O[C@@H]3C(=O)[C@H]1CC2`
Data returned: -0.481

Data request: # z-score lookup, item O=C1CCCC=C1C(O)CCOC(c1ccccc1)(c1ccccc1)c1ccccc1 (centres undefined)
Data returned: -0.26

Data request: # z-score lookup, item `CCc1cc2c(nc1CC)CCN(CCC(C)=NO[C@@H](C)c1cn([C@H](CO)Cc3ccccc3)nn1)C2`
Data returned: 1.8

Data request: # z-score lookup, item `COC(=O)CC=C[C@@H](C)[C@@H](C=NO[C@@H]1O[C@H](COC(C)=O)[C@@H](OC(C)=O)[C@H](OC(C)=O)[C@H]1OC(C)=O)OC`
Data returned: 0.2

Data request: # z-score lookup, item `COc1cccc([C@H]2Oc3ccc(OC)cc3C(=NO[C@@H]3O[C@H](COC(C)=O)[C@@H](OC(C)=O)[C@H](OC(C)=O)[C@H]3OC(C)=O)[C@@H]2O)c1`
Data returned: -0.104

Data request: # z-score lookup, item `C[C@H]1COC(=O)[C@@H]2CCCN2C(=O)[C@@H](C)COC(=O)[C@H](Cc2ccccc2)NC1=O`
Data returned: -0.501

Data request: # z-score lookup, item `CC(C)CON=C1C[C@@H](O)[C@@H](O)[C@@H]2[C@@H]3C(=O)N(Cc4ccc5c(c4)OCO5)C(=O)[C@@H]3CC[C@H]12`
Data returned: -0.479

Data request: # z-score lookup, item CCC=CCCC(OC(=O)c1ccc(Br)cc1)C1=CCCCC1=O (centres undefined)
Data returned: -0.805

Data request: # z-score lookup, item `CON=C1[C@H]2CCn3c(=O)n(-c4ccccc4)c(=O)n3[C@H]2[C@H](O)[C@@H]2O[C@H]12`
Data returned: 0.739

Data request: # z-score lookup, item `COC(=O)[C@@H]1CC[C@H](C)[C@@H](c2ccc(C)cc2)N1C(=O)c1ccc(C=NO[C@H](C)c2cn([C@@H]3COC[C@H]3O)nn2)cc1`
Data returned: -0.482

Data request: # z-score lookup, item `C[C@@H](c1ccccc1)N1C(=O)[C@H]2[C@H]3[C@H](O)[C@H](O)CC(=NOCc4ccccc4)[C@H]3CC[C@H]2C1=O`
Data returned: -0.159

Data request: # z-score lookup, item CCOC(=O)[C@H](CC(C)C)NC(=O)CCC1CC(OC(=O)NCCc2ccc(F)cc2)CC2(CCCC(COC(=O)NCC(c3ccccc3)c3ccccc3)O2)O1 (some centres undefined)
Data returned: -0.912

Data request: # z-score lookup, item `CCN1C(=O)[C@H]2[C@H]3[C@H](O)[C@H](O)CC(=NOCC(C)C)[C@@H]3CC[C@H]2C1=O`
Data returned: -0.308

Data request: # z-score lookup, item `COCOc1ccc(Br)cc1C(=O)[C@@H]1O[C@H]1c1cccc(OC)c1`
Data returned: -0.418

Data request: # z-score lookup, item CCOC(=O)[C@H](CC(C)C)NC(=O)CCC1CC(OC(=O)NCCc2ccc(F)cc2)CC2(CCCC(COC(=O)NCCc3ccccc3OC)O2)O1 (some centres undefined)
Data returned: -0.204
